- System: NCI-H226
- MEASUREMENT PROTOCOL: NCI tumour cell line growth inhibition, 48 h
Calls of active or inactive are those of the source. Rule as the data show it: active = GI50 up to about 1.1 µM and inactive = higher.
List of GI50 values.

Fill in the blank: the reported GI50 of CC(C)N(C(=O)c1ccc(NCc2cc(O)ccc2O)cc1)C(C)C is ____. 17.2 µM (inactive)

Value lookup for GI50; key = Cc1cc(C(=C2C=CC(=[N+](C)C)C=C2)c2ccc([N+](C)(C)C)cc2)ccc1N(C)C 16 µM (inactive)

Name the recorded GI50 for CC1=C(C(=O)Nc2ccccc2C)C(c2ccc([N+](=O)[O-])cc2)C(C(=O)Nc2ccccc2C)=C(C)N1 . > 100 µM (inactive)

Query (compound): CN(/N=C/C=N/N(C)C1=NCCCN1)C1=NCCCN1 ; field requested: GI50 > 100 µM (inactive)

GET /values?readout=GI50&item= CN(C)CCOC1(CC2CCCCC2)CCC(C(C)(C)C)CC1 (centres undefined) 6.84 µM (inactive)

If you can, please state the reported GI50 value of C/C(CCn1[nH]c(=O)ccc1=O)=N\Nc1ccc([N+](=O)[O-])cc1[N+](=O)[O-] . > 100 µM (inactive)

If you can, please state the reported GI50 value of Cc1ccccc1NC(=O)C1C(=O)N(c2ccccc2C)C(=O)/C1=N\N (centres undefined) . > 100 µM (inactive)

Recorded GI50 of CCOC(=O)C1=C(C)N(CC(C)C)C2(O)C(OC)CC(=O)C3C(=O)N(c4ccccc4)C(=O)C132 (centres undefined) , please. 26.1 µM (inactive)

Which GI50 is listed for O=S(=O)(O)c1cccc2cccc(/N=N/c3c(O)ccc4ccccc34)c12 ? > 100 µM (inactive)
